B1: Azoarcus group I ribozyme (parent)
chain: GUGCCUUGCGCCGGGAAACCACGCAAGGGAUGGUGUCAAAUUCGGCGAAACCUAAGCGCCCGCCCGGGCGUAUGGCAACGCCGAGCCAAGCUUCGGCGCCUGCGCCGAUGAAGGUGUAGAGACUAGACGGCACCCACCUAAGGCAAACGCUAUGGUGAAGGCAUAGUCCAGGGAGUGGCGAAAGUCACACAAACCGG

variants of: B1; assay: reverse-splicing fitness (ratio to wild type); higher = more active; in vitro selection; Mg2+ level not given
measurement.name: reverse-splicing fitness
# print the numeric value only

Consider the worked cases shown below.
* C82A A111G A145G C150A U176C | 0.0453
* A111G A120U A145C C150U C169A U176G | 0.00196
* C82U A111U A120C U176C | 0.0191
* C82A A120G C150G C169G | 0.00786
* C82A A111G A145C C150A C169A | 0.00955
* C82A A111G A120G A145U C150A C169A | 0.00837

Can you look up the measured reverse-splicing fitness of A111G A145G C150U for me?
0.941

Can you look up the measured reverse-splicing fitness of C82G A120G A145G C150A C169U U176C for me?
0.0168

Can you look up the measured reverse-splicing fitness of C82U A111C C150A for me?
0.0255

Can you look up the measured reverse-splicing fitness of A111G A120G A145G C169U for me?
0.252

Can you look up the measured reverse-splicing fitness of C82U A111C A120G C169A U176G for me?
0.00418

Can you look up the measured reverse-splicing fitness of C82G A120U C150G C169A U176C for me?
0.00402

Ref: the RNAGym collection of RNA variant scans (doi:10.1093/molbev/msab373)
